# assayText: Solubility in sodium phosphate buffer (0.1 M, pH 7.4) at 25 degrees C was determined
reportedProperty: solubility

Q: Provide solubility value for the following compound: CCCCCOC(=O)CCCNC(=O)NC1CCCCC1
Result: 1.51 µg/mL

---

# assaySystem: Bifunctional epoxide hydrolase 2 (Homo sapiens) (UniProt P34913)
# assayText: Tested for 90 % inhibitory concentration against human soluble epoxide hydrolase (sEH)
reportedProperty: log10 IC90 (log10 of the value in nM)
Plainly stated, the numbers are log10 of IC90 given in nM.

Some solved cases for reference:
>>> value("CCOC(=O)CCCCCCCOC(=O)CCCNC(=O)NC12CC3CC(CC(C3)C1)C2")
2.86
>>> value("CCOC(=O)CCCCCCCCCCOC(=O)CCCNC(=O)NC12CC3CC(CC(C3)C1)C2")
3.08

Would you mind giving log10 IC90 for every molecule in the list below?
1. CCOC(=O)CCCOC(=O)CCCNC(=O)NC12CC3CC(CC(C3)C1)C2
2. CCOC(=O)CCCCCCCCCOC(=O)CCCNC(=O)NC12CC3CC(CC(C3)C1)C2
3. CCOC(=O)CCOC(=O)CCCNC(=O)NC12CC3CC(CC(C3)C1)C2

Result:
3.70
2.83
3.95

---

# assayText: Partition coefficient (logP)
# Format: physicochemical
# experimentalContext: octanol/water
If the reported logP equals or exceeds 0.8, assign Met. If not, assign Not met.

Q: Has CCCCCCCCCCNC(=O)NC12CC3CC(CC(C3)C1)C2 a recorded logP greater than or equal to 0.8?
Result: Met

---

# assaySystem: Bifunctional epoxide hydrolase 2 (Homo sapiens, UniProt P34913)
# Sequence (P34913 whole entry): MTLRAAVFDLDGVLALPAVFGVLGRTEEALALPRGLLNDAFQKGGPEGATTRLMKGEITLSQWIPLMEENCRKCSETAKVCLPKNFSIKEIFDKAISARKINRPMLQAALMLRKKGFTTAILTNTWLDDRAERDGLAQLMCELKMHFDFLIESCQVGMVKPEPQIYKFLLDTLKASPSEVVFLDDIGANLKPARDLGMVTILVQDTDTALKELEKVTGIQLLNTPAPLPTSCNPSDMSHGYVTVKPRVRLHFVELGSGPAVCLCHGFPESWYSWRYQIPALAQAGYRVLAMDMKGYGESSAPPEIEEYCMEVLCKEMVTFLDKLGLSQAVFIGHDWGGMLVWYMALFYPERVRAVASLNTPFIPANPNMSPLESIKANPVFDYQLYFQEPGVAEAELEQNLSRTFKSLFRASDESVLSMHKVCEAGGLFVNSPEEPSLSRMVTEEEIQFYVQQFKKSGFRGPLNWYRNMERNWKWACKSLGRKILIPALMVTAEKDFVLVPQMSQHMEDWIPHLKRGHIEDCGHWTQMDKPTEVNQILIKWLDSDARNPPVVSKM
# assayText: Tested for 50 % inhibitory concentration against human soluble epoxide hydrolase (sEH)
reportedProperty: pIC50
One number for each entry, as −log10 of the molar value.

Would you mind giving pIC50 for every molecule in the list below?
1. CCOC(=O)c1ccc(COC(=O)CCCNC(=O)NC23CC4CC(CC(C4)C2)C3)cc1
2. CCOC(=O)/C=C/c1ccc(OC(=O)CCCNC(=O)NC23CC4CC(CC(C4)C2)C3)cc1
3. COC(=O)CCCNC(=O)NC12CC3CC(CC(C3)C1)C2
4. O=C(O)CCCNC(=O)NC12CC3CC(CC(C3)C1)C2
5. CCCCCCC(O)CCCNC(=O)Nc1cccc(Cl)c1 (centres undefined)

Result:
[7.00, 6.70, 5.80, 4.43, 5.51]

Would you mind giving pIC50 for every molecule in the list below?
1. O=C(NCCCCCO)NC1CCCCC1
2. CCOC(=O)Cc1ccc(OC(=O)CCCNC(=O)NC23CC4CC(CC(C4)C2)C3)cc1
3. COCCCNC(=O)NC1CCCCC1
4. CC(C)=CCCC(C)CCOC(=O)CCCNC(=O)NC12CC3CC(CC(C3)C1)C2 (centres undefined)

Result:
[3.60, 6.85, 5.21, 6.96]

---

# assaySystem: Bifunctional epoxide hydrolase 2 (Mus musculus, UniProt P34914)
# Sequence (P34914 whole entry): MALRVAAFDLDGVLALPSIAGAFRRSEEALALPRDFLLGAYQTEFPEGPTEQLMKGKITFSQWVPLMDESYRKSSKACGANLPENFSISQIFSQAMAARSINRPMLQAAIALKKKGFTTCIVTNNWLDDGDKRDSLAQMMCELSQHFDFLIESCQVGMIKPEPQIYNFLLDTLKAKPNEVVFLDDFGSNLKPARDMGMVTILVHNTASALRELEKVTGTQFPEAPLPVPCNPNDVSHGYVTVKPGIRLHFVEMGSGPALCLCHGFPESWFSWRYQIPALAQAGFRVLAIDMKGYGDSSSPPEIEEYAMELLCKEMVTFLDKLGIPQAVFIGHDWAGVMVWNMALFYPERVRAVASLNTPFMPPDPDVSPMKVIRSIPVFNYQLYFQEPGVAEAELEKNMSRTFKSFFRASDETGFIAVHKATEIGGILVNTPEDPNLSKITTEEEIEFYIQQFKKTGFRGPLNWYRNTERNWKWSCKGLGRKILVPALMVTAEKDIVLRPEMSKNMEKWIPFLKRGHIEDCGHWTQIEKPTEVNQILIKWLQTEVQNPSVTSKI
# assayText: Tested for 50 % inhibitory concentration against mouse soluble epoxide hydrolase (sEH)
Answer each item with its documented IC50.
Answers are plain numbers, in nM.

Some solved cases for reference:
>>> value("CC(C)=CCCC(C)CCOC(=O)CCCNC(=O)NC12CC3CC(CC(C3)C1)C2 (stereo unspecified)")
50
>>> value("CCCCCCC(O)CCCNC(=O)Nc1cccc(Cl)c1 (stereo unspecified)")
140
>>> value("CCOC(=O)Cc1ccc(OC(=O)CCCNC(=O)NC23CC4CC(CC(C4)C2)C3)cc1")
50
>>> value("COC(=O)CCCNC(=O)NC12CC3CC(CC(C3)C1)C2")
100
>>> value("O=C(NCCCCCO)NC1CCCCC1")
90000
>>> value("CCOC(=O)c1ccc(COC(=O)CCCNC(=O)NC23CC4CC(CC(C4)C2)C3)cc1")
50

Would you mind giving IC50 for every compound in the list below?
1. CCOC(=O)/C=C/c1ccc(OC(=O)CCCNC(=O)NC23CC4CC(CC(C4)C2)C3)cc1
2. O=C(O)CCCNC(=O)NC12CC3CC(CC(C3)C1)C2
3. COCCCNC(=O)NC1CCCCC1

Result:
50
22000
330

---

Answer each item with its documented IC90.
# assaySystem: Bifunctional epoxide hydrolase 2 (Mus musculus) (UniProt P34914)
# assayText: Tested for 90 % inhibitory concentration against mouse soluble epoxide hydrolase (sEH)

>>> value("CCOC(=O)CCCCOC(=O)CCCNC(=O)NC12CC3CC(CC(C3)C1)C2")
"100 nM"

Would you mind giving IC90 for every molecule in the list below?
1. CCOC(=O)CCCCCCCCCCCOC(=O)CCCNC(=O)NC12CC3CC(CC(C3)C1)C2
2. CCOC(=O)CCOC(=O)CCCNC(=O)NC12CC3CC(CC(C3)C1)C2
3. CCOC(=O)CCCOC(=O)CCCNC(=O)NC12CC3CC(CC(C3)C1)C2
4. CCOC(=O)CCCCCCCOC(=O)CCCNC(=O)NC12CC3CC(CC(C3)C1)C2

Result:
630 nM
630 nM
160 nM
160 nM

---

Answer each item with its documented IC90.
# assaySystem: Bifunctional epoxide hydrolase 2 (Mus musculus)
# assayText: Tested for 90 % inhibitory concentration against mouse soluble epoxide hydrolase (sEH)
Give bare numbers, in nM.

Some solved cases for reference:
>>> value("CCOC(=O)CCCCCCCCCCOC(=O)CCCNC(=O)NC12CC3CC(CC(C3)C1)C2")
350
>>> value("CCOC(=O)COC(=O)CCCNC(=O)NC12CC3CC(CC(C3)C1)C2")
110

Next:
Q: Provide IC90 value for the following compound: CCOC(=O)CCCCCCCCCOC(=O)CCCNC(=O)NC12CC3CC(CC(C3)C1)C2
Result: 260

---

# assaySystem: Bifunctional epoxide hydrolase 2 (Homo sapiens)
# Sequence (whole entry): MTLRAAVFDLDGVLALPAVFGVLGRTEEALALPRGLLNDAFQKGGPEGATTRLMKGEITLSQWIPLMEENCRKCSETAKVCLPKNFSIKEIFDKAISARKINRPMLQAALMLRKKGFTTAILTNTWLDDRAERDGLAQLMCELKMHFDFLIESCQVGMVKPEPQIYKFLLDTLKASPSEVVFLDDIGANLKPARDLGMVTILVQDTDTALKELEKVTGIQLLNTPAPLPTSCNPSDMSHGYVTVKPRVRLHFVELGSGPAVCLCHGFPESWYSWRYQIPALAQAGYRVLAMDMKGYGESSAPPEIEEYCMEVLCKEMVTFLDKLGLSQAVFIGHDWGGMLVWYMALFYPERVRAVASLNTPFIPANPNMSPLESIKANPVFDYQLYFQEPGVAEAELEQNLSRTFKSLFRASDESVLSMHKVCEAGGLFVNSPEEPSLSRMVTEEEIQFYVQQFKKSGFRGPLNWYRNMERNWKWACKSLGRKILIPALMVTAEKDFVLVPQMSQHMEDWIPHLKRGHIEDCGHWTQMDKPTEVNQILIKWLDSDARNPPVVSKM
# assayText: Tested for 90 % inhibitory concentration against human soluble epoxide hydrolase (sEH)
reportedProperty: IC90 (µM)
Answers are plain numbers, in µM.

Some solved cases for reference:
>>> value("CCOC(=O)COC(=O)CCCNC(=O)NC12CC3CC(CC(C3)C1)C2")
9
>>> value("CCOC(=O)CCCCCCCCCCCOC(=O)CCCNC(=O)NC12CC3CC(CC(C3)C1)C2")
1.8

Q: Provide IC90 value for the following molecule: CCOC(=O)CCCCOC(=O)CCCNC(=O)NC12CC3CC(CC(C3)C1)C2
Result: 1.5
